test system: CEM cells HIV-1 protection, formazan growth assay; assay: NCI AIDS Antiviral Assay;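 active means compounds giving half or more protection of infected cells from virus-caused growth loss, again on retest; inactive means the rest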
Would you mind answering with one of these outcomes? y for active, n for inactive

Q) Kindly provide the recorded test outcome for the following molecule: N=C([Se])c1ncn(C2OC(CO)C(O)C2O)c1N (configuration not stated)
A) n

Q) Kindly provide the recorded test outcome for the following molecule: Cc1cn(C2CC(F)C(COC(=O)CCCCCCCCCCCBr)O2)c(=O)[nH]c1=O (configuration not stated)
A) y

Q) Kindly provide the recorded test outcome for the following molecule: COC1=NS(=O)(=O)C(C)C(C)(C)O1 (configuration not stated)
A) n

Q) Kindly provide the recorded test outcome for the following molecule: O=C(Nc1nc2ccc([N+](=O)[O-])cc2s1)C(=O)C(C1OC(=O)c2ccccc21)[N+](=O)[O-] (configuration not stated)
A) n

Q) Kindly provide the recorded test outcome for the following molecule: CCCCOC(=O)NC(Nc1cccc(C(F)(F)F)c1)(C(F)(F)F)C(F)(F)F
A) n

Q) Kindly provide the recorded test outcome for the following molecule: COc1cnnc2c(C)c(-c3ccccc3)nn12
A) n

Q) Kindly provide the recorded test outcome for the following molecule: COC(=O)Cc1c(C2=Nc3ccccc3C2(O)CC(=O)OC)[nH]c2ccccc12 (configuration not stated)
A) n

Q) Kindly provide the recorded test outcome for the following molecule: CCn1c2ccc(C(=O)CCCN(C)C)cc2c2cc(C(=O)CCCN(C)C)ccc21
A) n

Q) Kindly provide the recorded test outcome for the following molecule: COc1cccc2c1CCc1c(-c3ccc(F)cc3)cc(-c3ccc4ccccc4n3)nc1-2
A) n

Q) Kindly provide the recorded test outcome for the following molecule: CSC1=N/C(=C\c2ccc(Cl)cc2)C(=O)N1CN1CCOCC1
A) n

Q) Kindly provide the recorded test outcome for the following molecule: COC(=O)c1ccc(C(=O)NC(Cc2ccc(Oc3cc(CC(NC(=O)c4ccccc4C(=O)OC)C(=O)OC)ccc3OC)cc2)C(=O)OC)cc1 (configuration not stated)
A) n

Q) Kindly provide the recorded test outcome for the following molecule: C[C@H](O)CCC(=O)c1ccoc1
A) n

Q) Kindly provide the recorded test outcome for the following molecule: O=c1c2sc3ccccc3sc=2c(=O)c2c(Cl)c(Cl)c(Cl)c(Cl)c12
A) n

Q) Kindly provide the recorded test outcome for the following molecule: O=C(CSc1cc(-c2ccc(Cl)cc2)s[s+]1)c1ccccc1
A) n

Q) Kindly provide the recorded test outcome for the following molecule: CCCCCCC/C=N/[N-]C(=O)c1ccncc1.CCCCCCC/C=N\[N-]C(=O)c1ccncc1.[Ni+2]
A) n

Q) Kindly provide the recorded test outcome for the following molecule: CCN(CC)CCC(=O)c1ccccc1
A) n

Q) Kindly provide the recorded test outcome for the following molecule: COc1cccc2c(N)c3cccc(C(=O)NCCN(C)C)c3nc12
A) n

Q) Kindly provide the recorded test outcome for the following molecule: [N-]=[N+]=Nc1ccc2c(c1)Sc1ccccc1N2CCCCCl
A) n

Q) Kindly provide the recorded test outcome for the following molecule: COc1nc2c(c(=O)[nH]1)N=C(c1ccc(Cl)cc1)CC(c1ccccc1)N2 (configuration not stated)
A) n

Q) Kindly provide the recorded test outcome for the following molecule: COc1ccc2c(c1)C(=O)C13CC(C(=O)OCc4ccccc4)C(OC(C)=O)(CCC21)C3 (configuration not stated)
A) n

Q) Kindly provide the recorded test outcome for the following molecule: COc1cc(O)c(C(=O)c2ccccc2)cc1S(=O)(=O)O
A) n

Q) Kindly provide the recorded test outcome for the following molecule: CCCCC(C=O)(C=C=C(C)C)CC (configuration not stated)
A) n
